# assaySystem: FGFR2 (Homo sapiens)
# Construct: purchased Invitrogen
# Sequence (P21802 22-821): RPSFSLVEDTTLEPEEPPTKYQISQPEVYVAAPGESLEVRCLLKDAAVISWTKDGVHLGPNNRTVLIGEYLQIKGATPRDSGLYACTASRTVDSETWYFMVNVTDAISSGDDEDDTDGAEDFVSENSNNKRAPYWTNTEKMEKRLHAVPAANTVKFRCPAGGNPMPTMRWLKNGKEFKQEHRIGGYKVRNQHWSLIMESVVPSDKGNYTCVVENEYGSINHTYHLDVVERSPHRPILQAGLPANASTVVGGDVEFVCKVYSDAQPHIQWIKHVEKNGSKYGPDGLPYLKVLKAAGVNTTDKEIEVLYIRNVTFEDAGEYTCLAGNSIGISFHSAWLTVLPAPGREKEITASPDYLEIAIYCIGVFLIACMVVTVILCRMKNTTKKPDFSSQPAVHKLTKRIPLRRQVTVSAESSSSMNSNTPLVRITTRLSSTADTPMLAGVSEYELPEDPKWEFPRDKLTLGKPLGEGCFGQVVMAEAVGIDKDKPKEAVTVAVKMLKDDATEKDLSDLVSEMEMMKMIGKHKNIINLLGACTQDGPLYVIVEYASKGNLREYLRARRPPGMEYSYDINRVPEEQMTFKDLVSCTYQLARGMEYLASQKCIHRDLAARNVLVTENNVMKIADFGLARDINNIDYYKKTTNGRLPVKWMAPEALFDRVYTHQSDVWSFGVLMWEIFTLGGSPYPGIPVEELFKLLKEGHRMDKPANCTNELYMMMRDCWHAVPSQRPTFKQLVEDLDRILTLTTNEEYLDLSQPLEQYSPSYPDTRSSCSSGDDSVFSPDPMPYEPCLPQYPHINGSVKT
# assayOverview: In vitro kinase assay (Z'-LYTE, Invitrogen)
# Format: biochemical
# conditions: compound at 100 nM, ATP Km apparent, read-out: % of inhibition of the kinase compared to the control
This section presents molecules with their documented inhibition at 0.1 µM values.

molecule | assaySystem | inhibition at 0.1 µM
COC(=O)c1cc2cc(CCc3cccc(NC(=O)c4ccc(CN5CCN(C)CC5)c(C(F)(F)F)c4)c3)cnc2[nH]1 | FGFR2 (Homo sapiens) | ≥ 50%
COC(=O)c1cc2cc(CCc3cc(NC(=O)c4ccccc4OC)ccc3Cl)cnc2[nH]1 | FGFR2 (Homo sapiens) | < 50%
COC(=O)c1cc2cc(COc3cc(NC(=O)c4ccc(CN5CCN(C)CC5)c(C(F)(F)F)c4)ccc3C)cnc2[nH]1 | FGFR2 (Homo sapiens) | ≥ 50%
CC(=O)c1cc2cc(CCc3cc(NS(=O)(=O)c4cccc(C(F)(F)F)c4)ccc3C)cnc2[nH]1 | FGFR2 (Homo sapiens) | < 50%
CC(=O)c1cc2cc(C(=O)Nc3cc(NC(=O)c4cc(-n5cnc(C)c5)cc(C(F)(F)F)c4)ccc3C)cnc2[nH]1 | FGFR2 (Homo sapiens) | < 50%
COC(=O)c1cc2cc(CCc3cccc(NC(=S)Cc4cccc(C(F)(F)F)c4)c3)cnc2[nH]1 | FGFR2 (Homo sapiens) | < 50%
COC(=O)c1cc2cc(CCc3ccc(C)c(NC(=O)c4ccc(CN5CCC(N(C)C)C5)c(C(F)(F)F)c4)c3)cnc2[nH]1 (stereo not shown) | FGFR2 (Homo sapiens) | ≥ 50%
COC(=O)c1cc2cc(COc3cc(NC(=O)c4ccc(CN5CCC(N(C)C)C5)c(C(F)(F)F)c4)ccc3C)cnc2[nH]1 (stereo not shown) | FGFR2 (Homo sapiens) | ≥ 50%
CC(=O)c1cc2cc(CCc3cc(NC(=O)c4cncc(C(F)(F)F)c4)ccc3C)cnc2[nH]1 | FGFR2 (Homo sapiens) | < 50%
COC(=O)c1cc2cc(CSc3cccc(NC(=O)c4cccc(C(F)(F)F)c4)c3)cnc2[nH]1 | FGFR2 (Homo sapiens) | < 50%
COC(=O)c1cc2cc(CCc3cc(NC(=O)c4ccc(CN5CCN(C)CC5)c(F)c4)ccc3C)cnc2[nH]1 | FGFR2 (Homo sapiens) | ≥ 50%
COC(=O)c1cc2cc(CCc3cc(NC(=O)c4ccc(CN5CCC(N(C)C)C5)c(C(F)(F)F)c4)ccc3Cl)cnc2[nH]1 (stereo not shown) | FGFR2 (Homo sapiens) | ≥ 50%
COC(=O)c1cc2cc(CCc3cc(NC(=O)Nc4cccc(C(F)(F)F)c4)ccc3C)cnc2[nH]1 | FGFR2 (Homo sapiens) | < 50%

====

# assaySystem: EGFR (ErbB1) (Homo sapiens, UniProt P00533)
# Construct: purchased Invitrogen
# Sequence (P00533 25-1210): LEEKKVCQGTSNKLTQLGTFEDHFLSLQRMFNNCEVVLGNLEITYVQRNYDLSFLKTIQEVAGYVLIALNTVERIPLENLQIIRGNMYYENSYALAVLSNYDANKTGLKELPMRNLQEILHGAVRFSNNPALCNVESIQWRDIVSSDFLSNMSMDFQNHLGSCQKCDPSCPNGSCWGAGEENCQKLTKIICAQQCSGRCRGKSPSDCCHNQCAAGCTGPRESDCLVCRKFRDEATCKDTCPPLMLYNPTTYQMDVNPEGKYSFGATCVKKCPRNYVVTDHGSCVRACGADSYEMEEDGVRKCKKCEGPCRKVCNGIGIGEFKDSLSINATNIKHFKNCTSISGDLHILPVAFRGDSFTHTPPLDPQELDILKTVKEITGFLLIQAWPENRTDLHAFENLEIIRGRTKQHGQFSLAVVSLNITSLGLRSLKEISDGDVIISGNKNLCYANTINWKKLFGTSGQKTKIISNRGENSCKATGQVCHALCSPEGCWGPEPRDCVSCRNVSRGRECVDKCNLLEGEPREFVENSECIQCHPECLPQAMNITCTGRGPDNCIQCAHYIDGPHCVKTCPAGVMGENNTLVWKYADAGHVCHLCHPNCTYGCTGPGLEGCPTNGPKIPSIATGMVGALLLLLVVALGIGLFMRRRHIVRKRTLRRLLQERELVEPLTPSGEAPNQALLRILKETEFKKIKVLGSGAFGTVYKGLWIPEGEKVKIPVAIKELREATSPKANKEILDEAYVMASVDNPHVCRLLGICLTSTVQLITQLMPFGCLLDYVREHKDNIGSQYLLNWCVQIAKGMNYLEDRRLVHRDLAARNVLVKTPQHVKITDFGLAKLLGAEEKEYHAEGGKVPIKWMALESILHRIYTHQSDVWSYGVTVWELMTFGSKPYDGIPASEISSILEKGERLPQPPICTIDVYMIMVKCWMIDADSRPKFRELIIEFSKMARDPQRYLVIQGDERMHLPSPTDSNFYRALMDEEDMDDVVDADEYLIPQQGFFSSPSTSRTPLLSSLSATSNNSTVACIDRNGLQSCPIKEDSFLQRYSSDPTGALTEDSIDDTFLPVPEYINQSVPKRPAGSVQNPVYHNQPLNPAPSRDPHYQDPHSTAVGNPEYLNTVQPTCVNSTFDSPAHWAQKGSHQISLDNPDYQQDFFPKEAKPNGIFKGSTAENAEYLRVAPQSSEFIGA
# assayOverview: In vitro kinase assay (Z'-LYTE, Invitrogen)
# Format: biochemical
# conditions: compound at 100 nM, ATP Km apparent, read-out: % of inhibition of the kinase compared to the control

compound | inhibition at 0.1 µM
COC(=O)c1cc2cc(CNC(=O)c3cc(NC(=O)c4ccc(CN5CCN(C)CC5)cc4)ccc3C)cnc2[nH]1 [OR0730] | < 50%
CC(=O)c1cc2cc(CCc3cc(NC(=O)Cc4cccc(C(F)(F)F)c4)ccc3C)cnc2[nH]1 [OR0966] | < 50%
CC(=O)c1cc2cc(CCc3cc(NC(=O)c4ccc(CN5CCN(C)CC5)c(C(F)(F)F)c4)ccc3C)cnc2[nH]1 [OR0797] | ≥ 50%
COC(=O)c1cc2cc(CCc3cc(NC(=O)c4ccc(CN5CCC(N(C)C)C5)c(C(F)(F)F)c4)ccc3Cl)cnc2[nH]1 (centres unmarked) [OR1007] | ≥ 50%
COC(=O)c1cc2cc(CCc3cc(NC(=O)c4ccc(CN5CCN(C)CC5)c(C(F)(F)F)c4)ccc3Cl)cnc2[nH]1 [OR1006] | ≥ 50%
COC(=O)c1cc2cc(CNC(=O)c3cc(NC(=O)c4ccc(CN5CCN(C)CC5)c(C(F)(F)F)c4)ccc3C)cnc2[nH]1 [OR0728] | < 50%
COC(=O)c1cc2cc(CCc3ccc(C)c(NC(=O)c4cc(-n5cnc(C)c5)cc(C(F)(F)F)c4)c3)cnc2[nH]1 [OR1068] | ≥ 50%
CC(=O)c1cc2cc(CCc3cc(NC(=O)c4ccc(CN5CC[C@H](N(C)C)C5)c(C(F)(F)F)c4)ccc3C)cnc2[nH]1 [OR0812] | ≥ 50%
COC(=O)c1cc2cc(CCc3cc(NC(=S)c4ccc(CN5CCN(C)CC5)cc4)ccc3C)cnc2[nH]1 [OR0969] | ≥ 50%
COC(=O)c1cc2cc(CCc3ccc(C)c(NC(=O)c4ccc(CN5CCC(N(C)C)C5)c(C(F)(F)F)c4)c3)cnc2[nH]1 (centres unmarked) [OR1044] | ≥ 50%
COC(=O)c1cc2cc(CCc3cc(NC(=O)Nc4cccc(C(F)(F)F)c4)ccc3C)cnc2[nH]1 [OR0918] | < 50%

The measured values listed here are drawn from patent US9550772B2.
